The measured values listed here are drawn from ChEMBL document CHEMBL5154698.

Molecular target: Histone deacetylase 2 (Homo sapiens)
Sequence (Q92769 whole entry): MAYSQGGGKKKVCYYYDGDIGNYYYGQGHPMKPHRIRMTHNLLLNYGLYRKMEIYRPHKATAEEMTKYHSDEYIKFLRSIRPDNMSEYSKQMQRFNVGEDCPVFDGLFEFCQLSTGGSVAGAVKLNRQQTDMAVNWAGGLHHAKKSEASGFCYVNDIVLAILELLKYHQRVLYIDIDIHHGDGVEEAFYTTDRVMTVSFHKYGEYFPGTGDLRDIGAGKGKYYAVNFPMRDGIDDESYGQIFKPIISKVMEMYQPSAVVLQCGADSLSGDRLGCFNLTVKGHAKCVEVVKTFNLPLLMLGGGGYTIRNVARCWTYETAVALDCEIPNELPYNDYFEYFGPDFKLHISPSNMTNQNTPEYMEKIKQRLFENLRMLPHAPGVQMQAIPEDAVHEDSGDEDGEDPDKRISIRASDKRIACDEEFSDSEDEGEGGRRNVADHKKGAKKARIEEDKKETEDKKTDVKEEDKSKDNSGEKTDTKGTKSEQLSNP
ASSAY_ENDPOINT: IC50 (nM)
API: value field is a number in nM; no unit string.

Challenge: Specify measured IC50 for O=C(NO)c1cnc(N2CCC(NC(=O)c3cnc(-n4cccn4)nc3O)CC2)nc1 .
Response given: 26.6

###

Target: Histone deacetylase 1 (Homo sapiens, UniProt Q13547)
Sequence (Q13547 whole entry): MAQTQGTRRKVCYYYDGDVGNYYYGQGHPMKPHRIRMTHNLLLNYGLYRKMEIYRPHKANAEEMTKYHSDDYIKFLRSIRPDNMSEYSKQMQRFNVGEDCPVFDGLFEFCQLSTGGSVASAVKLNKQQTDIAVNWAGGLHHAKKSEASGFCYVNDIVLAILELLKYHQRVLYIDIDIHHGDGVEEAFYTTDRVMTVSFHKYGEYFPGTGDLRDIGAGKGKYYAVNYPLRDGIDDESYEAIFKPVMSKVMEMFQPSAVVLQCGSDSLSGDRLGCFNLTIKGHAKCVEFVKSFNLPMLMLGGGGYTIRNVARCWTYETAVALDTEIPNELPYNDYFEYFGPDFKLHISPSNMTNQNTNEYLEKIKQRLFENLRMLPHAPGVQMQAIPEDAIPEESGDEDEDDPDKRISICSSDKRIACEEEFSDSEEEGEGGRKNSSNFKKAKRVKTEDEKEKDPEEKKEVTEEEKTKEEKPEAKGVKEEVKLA
ASSAY_ENDPOINT: pIC50
pIC50 here is simply -log10 of the concentration when that concentration is written in mol/L.

Challenge: Specify measured pIC50 for O=C(NO)c1cnc(N2CCC(NC(=O)c3cnc(-n4cccn4)nc3O)CC2)nc1 .
Response given: 7.70
